# experimental target: Gal(b1-4)GalNAc(b1-3)[Fuc(a1-2)]Gal(b1-4)GlcNAc
# method notes: glycan array binding signal (z-score within array); higher = stronger binding
# experimental context: glycan notation: IUPAC condensed, linker removed
The full list was thinned out, with the strongest signals kept by preference.

binder | glycan array binding signal (z-score)
Mermaid2 (Stilbonema majum) (protein) MGSSHHHHHHSSGLVPRGSHMAASGWLRSPQGTVVKLYRRSLSWSKADEFCKDVDGRLVVDRTADMHLFLIKNVLKEKKSRVWVGLRRTAPHSRTWIWSDGTRQNEDDLNTNLWLRDEPNDAAGEEECALFMYSPWEKAWGLNDYLCRGGCRSYQFICEKGIR | 0.467
MAL-II (Maackia amurensis), P93248 (protein) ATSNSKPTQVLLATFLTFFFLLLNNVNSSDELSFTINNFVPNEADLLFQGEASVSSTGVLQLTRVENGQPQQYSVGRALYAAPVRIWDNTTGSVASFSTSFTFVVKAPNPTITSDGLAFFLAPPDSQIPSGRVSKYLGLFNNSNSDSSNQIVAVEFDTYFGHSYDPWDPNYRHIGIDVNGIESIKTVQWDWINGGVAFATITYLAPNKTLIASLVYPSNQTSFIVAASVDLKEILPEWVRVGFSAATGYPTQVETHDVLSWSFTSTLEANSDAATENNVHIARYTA | -0.263
DC-SIGN (Canis lupus), XP_853402 (protein) AGLCRPCPWKWELFQESCYFFSQTQNTWKESISACQNLRAQLVIINSTEEQKFLKSWNTRNNQRTWIGLSDHHNEGSWKWVDNTPLQLSFWKEGEPNNHGDEDCVELYSDGWNDNRCSTENFWICKKPSSPCPGPGLNDIFEAQKIEWHE | -0.176
